# experimental target: EGFR-L858R/C797S (H1975-clone #8 cells) (Homo sapiens, UniProt P00533, C797S/L858R)
# Construct: expressed in transfected cells; host or cells: H1975 (endogenous EGFR knocked out, clone #8)
# Sequence (P00533 25-1210 C797S/L858R): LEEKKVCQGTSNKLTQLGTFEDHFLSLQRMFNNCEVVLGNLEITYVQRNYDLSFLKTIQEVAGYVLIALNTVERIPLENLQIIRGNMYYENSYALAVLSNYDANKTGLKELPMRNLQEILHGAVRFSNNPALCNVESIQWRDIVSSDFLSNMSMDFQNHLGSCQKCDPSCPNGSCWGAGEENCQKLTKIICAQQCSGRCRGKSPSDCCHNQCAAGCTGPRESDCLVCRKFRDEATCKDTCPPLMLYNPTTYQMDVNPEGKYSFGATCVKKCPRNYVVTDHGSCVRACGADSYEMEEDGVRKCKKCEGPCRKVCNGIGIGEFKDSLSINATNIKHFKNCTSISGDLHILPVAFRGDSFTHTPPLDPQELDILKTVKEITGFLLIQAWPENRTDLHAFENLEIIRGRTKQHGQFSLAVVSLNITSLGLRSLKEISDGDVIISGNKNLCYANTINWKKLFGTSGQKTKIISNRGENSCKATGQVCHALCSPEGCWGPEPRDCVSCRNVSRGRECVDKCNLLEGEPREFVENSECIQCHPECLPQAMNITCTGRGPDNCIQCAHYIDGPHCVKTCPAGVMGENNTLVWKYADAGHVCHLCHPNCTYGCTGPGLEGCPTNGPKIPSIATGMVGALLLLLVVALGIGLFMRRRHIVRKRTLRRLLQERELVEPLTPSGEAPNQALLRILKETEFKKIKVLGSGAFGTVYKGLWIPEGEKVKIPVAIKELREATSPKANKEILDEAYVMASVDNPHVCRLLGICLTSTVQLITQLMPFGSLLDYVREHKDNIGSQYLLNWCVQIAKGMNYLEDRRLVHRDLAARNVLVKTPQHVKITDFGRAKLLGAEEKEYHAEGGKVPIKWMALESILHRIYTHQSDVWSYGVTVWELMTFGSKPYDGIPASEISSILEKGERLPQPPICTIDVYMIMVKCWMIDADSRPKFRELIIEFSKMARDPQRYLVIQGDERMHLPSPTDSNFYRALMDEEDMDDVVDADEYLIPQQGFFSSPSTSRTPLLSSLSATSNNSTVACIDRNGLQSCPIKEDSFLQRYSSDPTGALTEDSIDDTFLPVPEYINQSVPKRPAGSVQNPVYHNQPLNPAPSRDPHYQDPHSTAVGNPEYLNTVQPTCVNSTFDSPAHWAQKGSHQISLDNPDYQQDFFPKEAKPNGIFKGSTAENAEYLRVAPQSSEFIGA
# assay details: Cell degradation of EGFR, HTRF assay, H1975-clone#8 (L858R/C797S) cells
# Type: cell-based
# assay context: 16 h treatment, maximum percentage of degradation
Below: a set of entries, each annotated with reported Dmax.

Examples with their reported Dmax follow.
| molecule | Dmax |
| --- | --- |
| Cc1cc2cc(n1)-c1cnn(C)c1OC[C@H]1CC[C@H](C1)CN1/C(=N/C2=O)Nc2ccc(N3CCN(C4CCN(c5ccc(NC6CCC(=O)NC6=O)cc5F)CC4)CC3)cc21 (stereo partly shown) | 69% |
| COC[C@@H]1CN(c2ccc3c(c2)N2CC4CC[C@H](COc5c(c(C)nn5C)-c5cc(cc(C)n5)C(=O)/N=C/2N3)C4)CCN1C1CCN(c2c(F)cc(NC3CCC(=O)NC3=O)cc2F)CC1 (stereo partly shown) | 86.5% |
| Cc1cc2cc(n1)-c1cnn(C)c1OC[C@H]1CC[C@H](C1)CN1/C(=N/C2=O)Nc2ccc(N3CCC(N4CC(Nc5cc(F)c([C@H]6CCC(=O)NC6=O)c(F)c5)C4)CC3)cc21 | 67.5% |
| COC[C@H]1CN(c2cc3c(cc2F)N/C2=N\C(=O)c4cc(C)nc(c4)-c4c(C)nn(C)c4OC[C@H]4CC[C@H](C4)CN23)CCN1C1CCN(c2cc(F)c([C@H]3CCC(=O)NC3=O)c(F)c2)CC1 | 88.7% |
| Cc1cc2cc(n1)-c1c(C)nn(C)c1OC[C@H]1CC[C@H](C1)CN1/C(=N/C2=O)Nc2ccc(N3CCC(NC4CN(c5c(F)cc(OC6CCC(=O)NC6=O)cc5F)C4)CC3)cc21 (stereo partly shown) | 77.3% |

Which Dmax value is on record for Cc1cc2cc(n1)-c1cnn(C)c1OC[C@H]1CCC(C1)CN1/C(=N/C2=O)Nc2ccc(N3CC4(C3)CN(C3CCN(c5cc(F)c([C@H]6CCC(=O)NC6=O)c(F)c5)CC3)C4)cc21 ?
80.6%

Which Dmax value is on record for COC[C@H]1CN(c2ccc3c(c2)N2C[C@@H]4CC[C@H](COc5c(c(C)nn5C)-c5cc(cc(C)n5)C(=O)/N=C/2N3)C4)CCN1C1CCN(c2c(C)cc(C3CCC(=O)NC3=O)nc2C)CC1 (stereo partly shown) ?
66.1%

----------
# experimental target: EGFR-L858R/C797S (H1975-clone #8 cells) (Homo sapiens, UniProt P00533, C797S/L858R)
# Construct: expressed in transfected cells; host or cells: H1975 (endogenous EGFR knocked out, clone #8)
# assay details: Cell degradation of EGFR, HTRF assay, H1975-clone#8 (L858R/C797S) cells
# Format: cell-based
# assay context: 16 h treatment, EGFR degradation
parameter measured: DC50
Write the numeric value and follow it with the unit.

| compound | DC50 |
| --- | --- |
| Cc1cc2cc(n1)-c1cnn(C)c1OC[C@H]1CC[C@H](C1)CN1/C(=N/C2=O)Nc2ccc(N3CCN([C@@H]4CCN(c5ccc(C6CCC(=O)NC6=O)nc5C)C[C@@H]4F)CC3)cc21 (stereo partly drawn) | 0.774 nM |
| Cc1cc2cc(n1)-c1cnn(C)c1OC[C@H]1CCC(C1)CN1/C(=N/C2=O)Nc2ccc(N3CCN(C4CCN(c5ccc(NC6CCC(=O)NC6=O)cc5Cl)CC4)CC3)cc21 (stereo partly drawn) | 2.53 nM |
| COC[C@@H]1CN(c2ccc3c(c2)N2CC4CC[C@H](COc5c(cnn5C)-c5cc(cc(C)n5)C(=O)/N=C/2N3)C4)CCN1CC1CN(c2cc(F)c([C@H]3CCC(=O)NC3=O)c(F)c2)C1 | 3.22 nM |
| COC[C@@H]1CN(c2ccc3c(c2)N2CC4CC[C@H](COc5c(cnn5C)-c5cc(cc(C)n5)C(=O)/N=C/2N3)C4)CCN1C1CCN(c2ccc(NC3CCC(=O)NC3=O)cc2C)CC1 (stereo partly drawn) | 5.97 nM |
| Cc1cc2cc(n1)-c1cnn(C)c1OC[C@H]1CC[C@H](C1)CN1/C(=N/C2=O)Nc2ccc(N3CCN(CC4CN(c5ccc6c(c5)CN(C5CCC(=O)NC5=O)C6=O)C4)CC3)cc21 (stereo partly drawn) | 0.6 nM |

Which DC50 value is on record for Cc1cc2cc(n1)-c1cnn(C)c1OC[C@H]1CCC(C1)CN1/C(=N/C2=O)Nc2ccc(N3CC4(CCN(C5CN(c6cc(F)c([C@H]7CCC(=O)NC7=O)c(F)c6)C5)CC4)C3)cc21 ?
1.49 nM

Which DC50 value is on record for Cc1cc2cc(n1)-c1cnn(C)c1OC[C@@H]1CC[C@@H](C1)CN1/C(=N/C2=O)Nc2ccc(N3CCN(C4CCN(c5ccc(C6CCC(=O)NC6=O)nc5C)CC4)CC3)cc21 (stereo partly drawn) ?
16.4 nM

Which DC50 value is on record for Cc1cc2cc(n1)-c1cnn(C)c1OC[C@H]1CCC(C1)CN1/C(=N/C2=O)Nc2ccc(N3CCC(CN4CCC(Nc5cc(F)c([C@H]6CCC(=O)NC6=O)c(F)c5)CC4)CC3)cc21 ?
0.867 nM

Which DC50 value is on record for Cc1cc2cc(n1)-c1cnn(C)c1OC[C@H]1CCC(C1)CN1/C(=N/C2=O)Nc2ccc(N3CCN([C@H]4CCN(c5cc(F)c([C@H]6CCC(=O)NC6=O)c(F)c5)C[C@H]4F)CC3)cc21 (single isomer, unassigned) ?
2.1 nM
